Study target: α2-receptors (Mus musculus, UniProt Q01338)
Construct: isolated, electrically stimulated mouse vas deferens preparation; from tissue; host or cells: mouse vas deferens
Sequence (Q01338 whole entry): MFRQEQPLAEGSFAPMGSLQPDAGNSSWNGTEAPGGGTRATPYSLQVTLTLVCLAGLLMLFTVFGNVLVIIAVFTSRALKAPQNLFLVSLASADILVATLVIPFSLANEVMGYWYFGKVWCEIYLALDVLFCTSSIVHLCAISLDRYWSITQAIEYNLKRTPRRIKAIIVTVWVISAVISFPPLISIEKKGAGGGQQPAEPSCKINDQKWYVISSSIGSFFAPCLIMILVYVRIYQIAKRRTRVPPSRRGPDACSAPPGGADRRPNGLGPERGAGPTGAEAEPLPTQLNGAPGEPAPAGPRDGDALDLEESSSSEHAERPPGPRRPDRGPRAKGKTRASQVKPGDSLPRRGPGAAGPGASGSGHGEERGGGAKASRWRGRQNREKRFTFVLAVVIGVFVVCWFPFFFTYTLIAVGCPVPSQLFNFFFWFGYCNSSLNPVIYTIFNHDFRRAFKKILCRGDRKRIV
Assay notes: α2-antagonism in vitro, isolated electrically stimulated mouse vas deferens (vs detomidine)
Assay type: biochemical
Experimental: α2 -antagonism was determined by means of isolated, electrically stimulated mouse vas deferens preparation (Marshall et al., Br. J. Pharmac. 62, 147, 151, 1978). In this model, α2 -agonist (detomidine) blocks electrically stimulated muscular contractions and the effect of the α2 -antagonist is seen by administering it prior to the agonist and by determining its pA2 value. Known α2 -antagonists like yohimbine and rauwolscine were used as reference substances.
Reported Kb values for the following molecules.
Give a bare numeral; the unit nM is implied.

>>> print(df.to_string())
                                   molecule  meas_value
0  c1ccc2c(c1)CC(c1cnc[nH]1)C2 [Compound I]        1.58
1  Cc1cccc2c1CC(c1cnc[nH]1)C2C (stereo not shown) [Compound VII]        25.1
2  c1ccc2c(c1)CC(c1cnc[nH]1)O2 (stereo not shown) [Compound II]        31.6
3  COC(=O)[C@@H]1[C@H]2C[C@H]3c4[nH]c5ccccc5c4CCN3C[C@@H]2CC[C@@H]1O [Yohimbine]        7.94
4  Cc1ccc2c(c1)CC(c1cnc[nH]1)C2 (stereo not shown) [Compound IV]          20
5  Cc1ccc2c(c1)C(C)C(c1cnc[nH]1)C2 (stereo not shown) [Compound VIII]        25.1
6  COC(=O)[C@H]1[C@H]2C[C@H]3c4[nH]c5ccccc5c4CCN3C[C@H]2CC[C@@H]1O [Rauwolscine, reference compound]        7.94
7  c1ccc2c(c1)CCC(c1cnc[nH]1)C2 (stereo not shown) [Compound XVIII]          20

Q: Specify the recorded Kb for CCC1(c2cnc[nH]2)Cc2ccccc2C1 [Compound XV] , system: α2-receptors (Mus musculus, UniProt Q01338).
Ans: 5.01

Q: Write down measured Kb (α2-receptors (Mus musculus, UniProt Q01338)) for this molecule. CC1c2ccccc2CC1c1cnc[nH]1 (stereo not shown) [Compound VI]
Ans: 2

---

Study target: α2-receptors of the central nervous system (Rattus norvegicus)
Construct: In anaesthetized rat, a standard dose of detomidine was administered intravenously; from tissue; host or cells: whole anaesthetized rat, in vivo (central nervous system)
Sequence (P22909 1-465): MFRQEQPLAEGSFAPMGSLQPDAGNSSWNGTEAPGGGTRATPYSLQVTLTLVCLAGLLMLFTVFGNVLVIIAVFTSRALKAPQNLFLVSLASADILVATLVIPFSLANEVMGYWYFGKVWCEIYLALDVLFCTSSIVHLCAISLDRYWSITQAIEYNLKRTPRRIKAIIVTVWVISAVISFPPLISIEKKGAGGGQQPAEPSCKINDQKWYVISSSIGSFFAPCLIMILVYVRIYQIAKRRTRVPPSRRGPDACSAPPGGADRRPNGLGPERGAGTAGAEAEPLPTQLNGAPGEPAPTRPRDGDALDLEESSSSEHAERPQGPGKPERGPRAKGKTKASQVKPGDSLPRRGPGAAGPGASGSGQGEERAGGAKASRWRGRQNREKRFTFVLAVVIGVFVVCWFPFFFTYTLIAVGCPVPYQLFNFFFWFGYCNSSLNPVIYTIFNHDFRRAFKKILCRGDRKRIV
Assay notes: α2-antagonism in vivo, reversal of detomidine-induced mydriasis in anaesthetized rat
Test context: rat, in vivo, iv
Classify: met when ED50, 50 percent reversal of detomidine-induced mydriasis is strictly less than 0.1 mg/kg; not met when ED50, 50 percent reversal of detomidine-induced mydriasis is not.

Use the examples below as a reference point.
>>> df
                                   compound  category_label
0  Brc1ccc2c(c1)CC(c1cnc[nH]1)O2 (stereo not drawn)         not met
1  Cc1ccc2c(c1)CC(c1cnc[nH]1)C2 (stereo not drawn)             met
2               c1ccc2c(c1)CC(c1cnc[nH]1)C2             met
3                CC1(c2cnc[nH]2)Cc2ccccc2C1             met
4  COC(=O)[C@@H]1[C@H]2C[C@H]3c4[nH]c5ccccc5c4CCN3C[C@@H]2CC[C@@H]1O         not met

Q: Does the reported ED50, 50 percent reversal of detomidine-induced mydriasis of c1ccc2c(c1)CC(c1cnc[nH]1)O2 (stereo not drawn) stay below 0.1 mg/kg?
Ans: met

---

Study target: α1-receptors
Assay notes: α1-agonism in vitro, isolated anococcygeus muscle (rat)
Assay type: biochemical
Test context: negative logarithm of the molar concentration producing 50 percent of maximal contraction
Readout type: α1-agonism (pD2) rat anococcygeus
Answer with the value's number alone.

Q: Look up α1-receptors data: α1-agonism (pD2) rat anococcygeus of c1ccc2c(c1)CC(c1cnc[nH]1)C2 , then report it.
Ans: 6.5

Q: Report value: α1-agonism (pD2) rat anococcygeus, system: α1-receptors, molecule: CNC[C@H](O)c1cccc(O)c1 [Phenylephrine, reference compound]
Ans: 6.5

Q: Please respond with reported α1-agonism (pD2) rat anococcygeus (system α1-receptors) for c1ccc2c(c1)CCC(c1cnc[nH]1)C2 (stereo not drawn) .
Ans: 6.0

Q: Report its α1-agonism (pD2) rat anococcygeus with α1-receptors as the test system: Cc1cccc2c1CC(c1cnc[nH]1)C2C (stereo not drawn)
Ans: 6.0

Q: Give reported α1-agonism (pD2) rat anococcygeus for c1ccc2c(c1)CC(c1cnc[nH]1)O2 (stereo not drawn) (α1-receptors)
Ans: 5.5

Q: Please indicate recorded α1-agonism (pD2) rat anococcygeus of CC1c2ccccc2CC1c1cnc[nH]1 (stereo not drawn) measured with α1-receptors.
Ans: 6.5

Q: Quote α1-agonism (pD2) rat anococcygeus with test system α1-receptors for CC1(c2cnc[nH]2)Cc2ccccc2C1
Ans: 5.5

Q: Return reported α1-agonism (pD2) rat anococcygeus for target or system α1-receptors, item Cc1ccc2c(c1)CC(c1cnc[nH]1)C2 (stereo not drawn) .
Ans: 6.5

Q: Give the observed α1-agonism (pD2) rat anococcygeus of Brc1ccc2c(c1)CC(c1cnc[nH]1)O2 (stereo not drawn) for α1-receptors.
Ans: 4.5

---

Study target: α2-receptors of the central nervous system (Rattus norvegicus)
Construct: In anaesthetized rat, a standard dose of detomidine was administered intravenously; from tissue; host or cells: whole anaesthetized rat, in vivo (central nervous system)
Assay notes: α2-antagonism in vivo, reversal of detomidine-induced mydriasis in anaesthetized rat
Test context: rat, in vivo, iv
Readout type: ED50, 50 percent reversal of detomidine-induced mydriasis (mg/kg)
Please give a number only; it is taken to be in mg/kg.

Use these answered entries as a reference point.
>>> print(df.to_string())
                                   compound  meas_value
0  CC1c2ccccc2CC1c1cnc[nH]1 (stereo not drawn)         0.1
1  Cc1cccc2c1CC(c1cnc[nH]1)C2C (stereo not drawn)         0.1

Please look at the following compound next.
Q: Quote ED50, 50 percent reversal of detomidine-induced mydriasis reported for Cc1ccc2c(c1)C(C)C(c1cnc[nH]1)C2 (stereo not drawn) please.
Ans: 0.1
